system: NCI-H1648; assay: relative viability (nuclei count vs DMSO), 5 days (fraction); higher = more cells survive; settings: first compound 0.05 µM

Molecule | relative viability
Nc1ccn([C@@H]2O[C@H](CO)[C@@H](O)[C@@H]2O)c(=O)n1 [Cytarabine] + Cc1cc(Nc2cc(N3CCN(C)CC3)nc(Sc3ccc(NC(=O)C4CC4)cc3)n2)n[nH]1 [Tozasertib] (partner 0.1 µM) | 0.484
COc1cc2nccc(Oc3ccc(NC(=O)Nc4cc(C)on4)c(Cl)c3)c2cc1OC [Tivozanib] + Nc1nc2[nH]cc(CCc3ccc(C(=O)N[C@@H](CCC(=O)O)C(=O)O)cc3)c2c(=O)[nH]1 [Pemetrexed] (partner 0.2 µM) | 0.778
COc1cc2nccc(Oc3ccc(NC(=O)Nc4cc(C)on4)c(Cl)c3)c2cc1OC [Tivozanib] + CC(=O)Nc1cccc(-n2c(=O)n(C3CC3)c(=O)c3c(Nc4ccc(I)cc4F)n(C)c(=O)c(C)c32)c1 [Trametinib] (partner 0.02 µM) | 0.473
Nc1ccn([C@@H]2O[C@H](CO)[C@@H](O)[C@@H]2O)c(=O)n1 [Cytarabine] + NC(=O)Nc1cc(-c2cccc(F)c2)sc1C(=O)N[C@H]1CCCNC1 [AZD7762] (partner 0.2 µM) | 0.73

----------
system: LOU-NH91; assay: relative viability (nuclei count vs DMSO), 5 days (fraction); higher = more cells survive; conditions: first compound 5 µM
Entries and their measured relative viability follow.

Compound | relative viability
O=C(O)CCCCC(CCSCc1ccccc1)SCc1ccccc1 (stereo not given) [CPI-613] + O=C(c1cc(Cc2n[nH]c(=O)c3ccccc23)ccc1F)N1CCN(C(=O)C2CC2)CC1 [Olaparib] (partner 8 µM) | 0.883
O=C(O)CCCCC(CCSCc1ccccc1)SCc1ccccc1 (stereo not given) [CPI-613] + CC(=O)Nc1cccc(-n2c(=O)n(C3CC3)c(=O)c3c(Nc4ccc(I)cc4F)n(C)c(=O)c(C)c32)c1 [Trametinib] (partner 0.02 µM) | 0.767
O=C(O)CCCCC(CCSCc1ccccc1)SCc1ccccc1 (stereo not given) [CPI-613] + CS(=O)(=O)N1CCN(Cc2cc3nc(-c4cccc5[nH]ncc45)nc(N4CCOCC4)c3s2)CC1 [Pictilisib] (partner 1 µM) | 0.499
O=C(O)CCCCC(CCSCc1ccccc1)SCc1ccccc1 (stereo not given) [CPI-613] + CC(=O)c1c(C)c2cnc(Nc3ccc(N4CCNCC4)cn3)nc2n(C2CCCC2)c1=O [Palbociclib] (partner 0.5 µM) | 0.506
O=C(O)CCCCC(CCSCc1ccccc1)SCc1ccccc1 (stereo not given) [CPI-613] + CC(C)C[C@H](NC(=O)[C@H](Cc1ccccc1)NC(=O)c1cnccn1)B(O)O [Bortezomib] (partner 0.002 µM) | 0.49

----------
system: LK-2; assay: relative viability (nuclei count vs DMSO), 5 days (fraction); higher = more cells survive; settings: first compound 0.8 µM
Entries and their measured relative viability follow.
Readout name: relative viability

Molecule | Assay result
Cc1cnc(-c2cnc(NCCNc3ccc(C#N)cn3)nc2-c2ccc(Cl)cc2Cl)[nH]1 + CCNC(=O)c1noc(-c2cc(C(C)C)c(O)cc2O)c1-c1ccc(CN2CCOCC2)cc1 [Luminespib] (partner 0.01 µM) | 0.239
O=c1[nH]c2ccccc2n1C1CCN(CCCC(c2ccc(F)cc2)c2ccc(F)cc2)CC1 [Pimozide] + O=C(CCCCCCC(=O)Nc1ccccc1)NO [Vorinostat] (partner 1 µM) | 0.254
O=c1[nH]c2ccccc2n1C1CCN(CCCC(c2ccc(F)cc2)c2ccc(F)cc2)CC1 [Pimozide] + Nc1ncn([C@H]2C[C@H](O)[C@@H](CO)O2)c(=O)n1 [Decitabine] (partner 2 µM) | 0.28
Cc1cnc(-c2cnc(NCCNc3ccc(C#N)cn3)nc2-c2ccc(Cl)cc2Cl)[nH]1 + Cc1cc(Nc2cc(N3CCN(C)CC3)nc(Sc3ccc(NC(=O)C4CC4)cc3)n2)n[nH]1 [Tozasertib] (partner 0.1 µM) | 0.188
O=c1[nH]c2ccccc2n1C1CCN(CCCC(c2ccc(F)cc2)c2ccc(F)cc2)CC1 [Pimozide] + CC(=O)Nc1cccc(-n2c(=O)n(C3CC3)c(=O)c3c(Nc4ccc(I)cc4F)n(C)c(=O)c(C)c32)c1 [Trametinib] (partner 0.02 µM) | 0.749

----------
test system: COR-L23; experiment: relative viability (nuclei count vs DMSO), 5 days (fraction); higher = more cells survive; conditions: first compound 0.000632 µM
Readout name: relative viability

Compound | Readout name | Assay result
CC(=O)O[C@@]12CO[C@@H]1C[C@H](O)[C@@]1(C)C(=O)[C@H](O)C3=C(C)[C@@H](OC(=O)[C@H](O)[C@@H](NC(=O)OC(C)(C)C)c4ccccc4)C[C@@](O)([C@@H](OC(=O)c4ccccc4)[C@H]21)C3(C)C [Docetaxel] + O=C(c1cc(Cc2n[nH]c(=O)c3ccccc23)ccc1F)N1CCN(C(=O)C2CC2)CC1 [Olaparib] (partner 8 µM) | relative viability | 0.312
CC(=O)O[C@@]12CO[C@@H]1C[C@H](O)[C@@]1(C)C(=O)[C@H](O)C3=C(C)[C@@H](OC(=O)[C@H](O)[C@@H](NC(=O)OC(C)(C)C)c4ccccc4)C[C@@](O)([C@@H](OC(=O)c4ccccc4)[C@H]21)C3(C)C [Docetaxel] + CC(=O)Nc1cccc(-n2c(=O)n(C3CC3)c(=O)c3c(Nc4ccc(I)cc4F)n(C)c(=O)c(C)c32)c1 [Trametinib] (partner 0.02 µM) | relative viability | 0.579
CC(=O)O[C@@]12CO[C@@H]1C[C@H](O)[C@@]1(C)C(=O)[C@H](O)C3=C(C)[C@@H](OC(=O)[C@H](O)[C@@H](NC(=O)OC(C)(C)C)c4ccccc4)C[C@@](O)([C@@H](OC(=O)c4ccccc4)[C@H]21)C3(C)C [Docetaxel] + CCNC(=O)c1noc(-c2cc(C(C)C)c(O)cc2O)c1-c1ccc(CN2CCOCC2)cc1 [Luminespib] (partner 0.01 µM) | relative viability | 0.622

----------
test system: HCC-827; test: relative viability (nuclei count vs DMSO), 5 days (fraction); higher = more cells survive; settings: first compound 500 µM
The label is criterion met for relative viability below 0.3 and criterion not met for relative viability equal to or exceeding 0.3.

Compound | Discrete label
O=C(O)CCCCC(CCSCc1ccccc1)SCc1ccccc1 (configuration not stated) [CPI-613] + Cc1nc(NC(=O)N2CCC[C@H]2C(N)=O)sc1-c1ccnc(C(C)(C)C(F)(F)F)c1 [Alpelisib] (partner 2 µM) | criterion met
O=C(O)CCCCC(CCSCc1ccccc1)SCc1ccccc1 (configuration not stated) [CPI-613] + CC1(C)CCC(c2ccc(Cl)cc2)=C(CN2CCN(c3ccc(C(=O)NS(=O)(=O)c4ccc(N[C@H](CCN5CCOCC5)CSc5ccccc5)c(S(=O)(=O)C(F)(F)F)c4)cc3)CC2)C1 [Navitoclax] (partner 0.5 µM) | criterion met
O=C(O)CCCCC(CCSCc1ccccc1)SCc1ccccc1 (configuration not stated) [CPI-613] + COc1cccc2cc(-c3nc([C@H]4CC[C@H](C(=O)O)CC4)n4ncnc(N)c34)[nH]c12 [OSI-027] (partner 0.5 µM) | criterion not met
O=C(O)CCCCC(CCSCc1ccccc1)SCc1ccccc1 (configuration not stated) [CPI-613] + CCNC(=O)c1noc(-c2cc(C(C)C)c(O)cc2O)c1-c1ccc(CN2CCOCC2)cc1 [Luminespib] (partner 0.01 µM) | criterion not met
O=C(O)CCCCC(CCSCc1ccccc1)SCc1ccccc1 (configuration not stated) [CPI-613] + CS(=O)(=O)N1CCN(Cc2cc3nc(-c4cccc5[nH]ncc45)nc(N4CCOCC4)c3s2)CC1 [Pictilisib] (partner 1 µM) | criterion not met
O=C(O)CCCCC(CCSCc1ccccc1)SCc1ccccc1 (configuration not stated) [CPI-613] + NC(=O)Nc1cc(-c2cccc(F)c2)sc1C(=O)N[C@H]1CCCNC1 [AZD7762] (partner 0.2 µM) | criterion met

----------
tested on: NCI-H1651; experiment: relative viability (nuclei count vs DMSO), 5 days (fraction); higher = more cells survive; conditions: first compound 1.265 µM
Readout name: relative viability

Compound | Study system | Assay result
Cc1sc2c(c1C)C(c1ccc(Cl)cc1)=N[C@@H](CC(=O)OC(C)(C)C)c1nnc(C)n1-2 [JQ1] + O=C(c1cc(Cc2n[nH]c(=O)c3ccccc23)ccc1F)N1CCN(C(=O)C2CC2)CC1 [Olaparib] (partner 8 µM) | NCI-H1651 | 0.132
Cc1sc2c(c1C)C(c1ccc(Cl)cc1)=N[C@@H](CC(=O)OC(C)(C)C)c1nnc(C)n1-2 [JQ1] + Cc1nc(Nc2ncc(C(=O)Nc3c(C)cccc3Cl)s2)cc(N2CCN(CCO)CC2)n1 [Dasatinib] (partner 0.075 µM) | NCI-H1651 | 0.246
Cc1sc2c(c1C)C(c1ccc(Cl)cc1)=N[C@@H](CC(=O)OC(C)(C)C)c1nnc(C)n1-2 [JQ1] + C[C@@H](Oc1cc(-c2cnn(C3CCNCC3)c2)cnc1N)c1c(Cl)ccc(F)c1Cl [Crizotinib] (partner 1 µM) | NCI-H1651 | 0.639
Cc1sc2c(c1C)C(c1ccc(Cl)cc1)=N[C@@H](CC(=O)OC(C)(C)C)c1nnc(C)n1-2 [JQ1] + C[C@]1(O)C[C@@H](c2nc(-c3ccc4ccc(-c5ccccc5)nc4c3)c3c(N)nccn32)C1 [Linsitinib] (partner 1 µM) | NCI-H1651 | 0.433
